# credit: paper PMC12212125

B1: Arabidopsis thaliana cryptochrome 2 (CRY2, UniProt Q96524), residues 1-535 fused after the Gal4 DNA-binding domain (Gal4BD-CRY2(535)); mutagenized window 321-412, Q96524 (parent)
chain: MKMDKKTIVWFRRDLRIEDNPALAAAAHEGSVFPVFIWCPEEEGQFYPGRASRWWMKQSLAHLSQSLKALGSDLTLIKTHNTISAILDCIRVTGATKVVFNHLYDPVSLVRDHTVKEKLVERGISVQSYNGDLLYEPWEIYCEKGKPFTSFNSYWKKCLDMSIESVMLPPPWRLMPITAAAEAIWACSIEELGLENEAEKPSNALLTRAWSPGWSNADKLLNEFIEKQLIDYAKNSKKVVGNSTSLLSPYLHFGEISVRHVFQCARMKQIIWARDKNSEGEESADLFLRGIGLREYSRYICFNFPFTHEQSLLSHLRFFPWDADVDKFKAWRQGRTGYPLVDAGMRELWATGWMHNRIRVIVSSFAVKFLLLPWKWGMKYFWDTLLDADLECDILGWQYISGSIPDGHELDRLDNPALQGAKYDPEGEYIRQWLPELARLPTEWIHHPWDAPLTVLKASGVELGTNYAKPIVDIDTARELLAKAISRTREAQIMIGAAPDEIVADSFEALGANTIKEPGLCPSVSSNDQQVPSAV

variants of: B1; assay: yeast two-hybrid growth selection (MaV203; Gal4BD-CRY2(1-535) library x Gal4AD-CIB1; URA3 reporter on SC -Trp/-Leu/-Ura) in the dark, deep sequencing before and after selection, Enrich2 scoring; three independent screens (one at 48 h, two …); details: with CIB1 (CRYPTOCHROME-INTERACTING BASIC-HELIX-LOOP-HELIX 1), dark (no blue light), screens 1, 3 and 4, Svar > 0 = enriched under dark selection for CRY2-CIB1 two-hybrid growth (URA3 reporter), < 0 = depleted, relative to wild type (whose scores are 0). 'The Enrich2 software calculates, parent: 0, not an affinity, scale: Enrich2 score, numbering: uniprot, sequence starts at 1
reported.property: enrichment
Please reply with the number alone, leaving off any unit.

These recorded examples may help you get a feel for the data.
- mutation.list: "M354I"
  enrichment: 0.689
- mutation.list: "H355Y"
  enrichment: -0.714
- mutation.list: "G396D"
  enrichment: 0.65

Turning to the following variant.
Exercise: Determine from records and report enrichment for P339L
Key: -1.02
